Task for the reader: assign each of the following compounds its reported GI50.
# System: SK-MEL-28
# experiment: NCI tumour cell line growth inhibition, 48 h
Calls of active or inactive are those of the source. No stated cut-off is given here; in the data, active = GI50 up to about 1.1 µM and inactive = higher.

# example entries with known answers
compound: CCOC(=O)CCC(NC(=O)OCc1ccccc1)C(=O)NNC(=O)OC(C)(C)C (centres undefined)
GI50: > 100 µM (inactive)
--
compound: CCC1CNC(=O)CC1CC(=O)OC (centres undefined)
GI50: > 100 µM (inactive)
--
compound: Cc1cc(C)nc(NS(=O)(=O)c2ccc(NC(=O)c3cccc4c(Nc5ccc(S(=O)(=O)Nc6cc(C)on6)cc5)c5ccccc5nc34)cc2)n1
GI50: 20.7 µM (inactive)

Now for a further compound.
Request the reported GI50 associated with "O=C(O)CN1CCN2CCOCCN(CC1)CCN(CC(=O)O)CC2" > 100 µM (inactive)

----------
# Test system: RXF 393
# experiment: NCI tumour cell line growth inhibition, 48 h
Activity calls are given as the source filed them. Rule as the data show it: active = GI50 up to about 1.1 µM and inactive = higher.
Classes to choose from: active, inactive

Example entries and their recorded answers appear below.
molecule: Cc1ccc2c(O)cc(-c3cc4ccccc4s3)nc2n1
label_class: inactive
//
molecule: Brc1cc(CCOC2CCCCO2)c(-c2sccc2CCOC2CCCCO2)s1 (stereo unspecified)
label_class: active
//
molecule: Nc1nc(-c2cc(-c3cccc4ccccc34)nc(N)n2)cc(-c2cccc3ccccc23)n1
label_class: inactive
//
molecule: OC(c1ccccc1)C(F)(F)c1nc2ccccc2o1 (stereo unspecified)
label_class: inactive
//
molecule: O=c1oc2ccc(-n3c(=O)c4ccccc4c4ccccc4c3=O)cc2c2ccccc12
label_class: inactive
//
molecule: COc1ccc(/C(C#N)=C(/N)SCc2ccccc2Cl)cc1
label_class: inactive
//
molecule: CC1(Br)S(=O)(=O)OCCOS1(=O)=O
label_class: inactive
//
molecule: O=C1C2C=CC(n3[nH]c(=O)n(Cc4ccccc4)c3=O)CC2C(=O)N1c1cccc(Cl)c1 (stereo unspecified)
label_class: inactive

Recorded test outcome, item "Cc1nc2cc3ccccc3cc2[nH]c1=O" inactive

Recorded test outcome, item O=C1/C(=C/c2ccccc2[N+](=O)[O-])N=C(c2ccccc2)N1C1Nc2cc3c(cc2S1)NC(N1C(=O)/C(=C/c2ccccc2[N+](=O)[O-])N=C1c1ccccc1)S3 (stereo unspecified) inactive

Recorded test outcome, item "O=[N+]([O-])c1ccc(/C=N/C23CC4CC(CC(C4)C2)C3)cc1" inactive

----------
# Tested on: HT-29
# experiment: NCI tumour cell line growth inhibition, 48 h
The source made the active and inactive calls. No stated cut-off is given here; in the data, active = GI50 up to about 1.1 µM and inactive = higher.
Task for the reader: assign each of the following compounds its reported GI50.

# example entries with known answers
compound: CCCCCCCCCCC(=O)CCCCCCC(=O)O
GI50: 18.5 µM (inactive)

compound: CC(C)(O)[C@@H]1CC[C@@]2(C)CCCC(O)C2(O)C1 (some centres undefined)
GI50: > 100 µM (inactive)

compound: CN(C)CCCNC(=S)S
GI50: > 100 µM (inactive)

Please supply GI50 for each of the following items, keeping them in order.
1. CCOC(=O)N1CCN(c2nc(C)n(-c3ccccc3)c(=S)c2C#N)CC1
2. O=C(Nc1ccc(Cl)c(Cl)c1)C(=O)C(C(=O)c1ccccc1F)C1OC(=O)c2ccccc21 (centres undefined)
3. CCOC(=O)c1cn(Cc2ccccc2)c(=O)n1Cc1ccccc1

["> 100 µM (inactive)", "34.4 µM (inactive)", "> 100 µM (inactive)"]

Please supply GI50 for each of the following items, keeping them in order.
1. CCCCCCc1cc2cc(-c3csc(CC#N)n3)c(=O)oc2cc1O
2. CC(C)=NOC(=O)OC[C@H]1O[C@@H](n2cnc3c(N)ncnc32)C(O)C1O (some centres undefined)
3. Cc1cc2c(cc1C)[n+]([O-])c(C(=O)C/C(=N/NC(=S)NN)C(=O)Nc1cccc(C(F)(F)F)c1)c[n+]2[O-]
4. CCC1c2[nH]c3ccccc3c2C[C@H]2C(=O)N3CCC[C@H]3C(=O)N12 (some centres undefined)
5. Nc1nc(N)c(N=O)c(Nc2ccc(O)cc2)n1
6. Cn1c2ccccc2c(=O)c2c(O)cc3c(c21)C=CC1(CCCCC1)O3

1: > 100 µM (inactive); 2: 85.3 µM (inactive); 3: > 100 µM (inactive); 4: > 100 µM (inactive); 5: 18 µM (inactive); 6: 3.85 µM (inactive)

Please supply GI50 for each of the following items, keeping them in order.
1. O=C1NC(=O)C2C(=O)NC(=O)C1C2c1c(Cl)cccc1Cl (centres undefined)
2. CCOC(=O)C1=NOC2(C=C(Br)C(=O)C(Br)=C2)C1
3. O=C1CCCC/C1=C\c1ccc([N+](=O)[O-])cc1
4. C[C@]12CCC(N3CCCC3)CC1=CC[C@@H]1[C@@H]2CC[C@]2(C)C(O)[C@H](n3ccnc3)C[C@@H]12 (some centres undefined)
5. NC1=C(O)c2cccc3cccc(c23)C1=O
6. Cn1c2ccccc2c(=O)c2cccc(C(=O)NC(CS)C(=O)O)c21 (centres undefined)
7. c1ccc2sc(C3(N4CCCCC4)CCCC3)cc2c1

1: > 92.5 µM (inactive); 2: 1.97 µM (inactive); 3: 37.3 µM (inactive); 4: 5.85 µM (inactive); 5: > 100 µM (inactive); 6: > 100 µM (inactive); 7: 3.24 µM (inactive)

----------
# System: HOP-62
# experiment: NCI tumour cell line growth inhibition, 48 h
Active and inactive are the calls of the source. Rule as the data show it: active = GI50 up to about 1.1 µM and inactive = higher.
Classes to choose from: active, inactive

Example entries and their recorded answers appear below.
compound: Cc1[nH]n(-c2ccccc2)c(=O)c1C(N(CCc1ccccc1)C1=NCC(C)S1)(C(F)(F)F)C(F)(F)F (configuration not stated)
label_class: inactive
--
compound: C[C@@H]1C[C@@H]([C@H](O)CC2CC(=O)NC(=O)C2)C(=O)[C@@H](C)C1 [CYCLOHEXIMIDE]
label_class: active
--
compound: C[C@]12[C@@H]3CC[C@H]1[C@@H](O)C(=O)N2CC3
label_class: inactive
--
compound: Cc1cc(C)nc(NS(=O)(=O)c2ccc(NC(=O)c3cccc4c(Nc5ccc(S(=O)(=O)Nc6cc(C)on6)cc5)c5ccccc5nc34)cc2)n1
label_class: inactive
--
compound: Oc1ccc(-c2nc3cc(C(F)(F)F)ccc3n2CC2CCCN3CCCCC23)cc1 (configuration not stated)
label_class: inactive
--
compound: Oc1ccccc1C1=NOC(c2ccc(C(F)(F)F)cc2)C1 (configuration not stated)
label_class: inactive

Next item in the queue.
Recorded test outcome, item "CC(C)=CCC[C@@H](C)C1=C(O)C(=O)C(C)=C(Nc2ccccc2)C1=O" inactive

----------
# Tested on: SW-620
# experiment: NCI tumour cell line growth inhibition, 48 h
Activity calls are given as the source filed them. Cut-off read from the data, not from the text of the source: active = GI50 up to about 1.1 µM and inactive = higher.
Classes to choose from: yes (1) for active, no (0) for inactive

molecule: O=C(NC(C(F)(F)F)(C(F)(F)F)P(=O)(c1ccccc1)c1ccccc1)C(C(F)(F)F)C(F)(F)F
label_class: no (0)

Next item in the queue.
Recorded test outcome, item "COc1cc([N+](=O)[O-])c(S(=O)(=O)O)cc1NS(=O)(=O)c1ccc(C)cc1" no (0)

----------
# System: 786-0
# experiment: NCI tumour cell line growth inhibition, 48 h
Calls of active or inactive are those of the source. Rule as the data show it: active = GI50 up to about 1.1 µM and inactive = higher.
Classes to choose from: active, inactive

compound: CC(=O)NNc1nc(C)c(C(=O)NNC(=O)C(=O)Nc2ccc(Cl)cc2Cl)s1
label_class: inactive

compound: O=C1CCCC/C1=C\c1ccc([N+](=O)[O-])cc1
label_class: inactive

compound: COc1cc(C(C)c2cc3c(cc2OCCOCCOc2cc4c(cc2C(C)c2cc(OC)c(OC)c(OC)c2)OCO4)OCO3)cc(OC)c1OC (stereo unspecified)
label_class: inactive

compound: CCCCCCCCCCC(=O)CCCCCCC(=O)O
label_class: inactive

compound: C=CCCON(C(=O)OC(C)(C)C)c1ccccc1
label_class: inactive

compound: CCN1CCCC(C#N)(c2ccccc2)CC1 (stereo unspecified)
label_class: inactive

Recorded test outcome, item CC1=CC(=O)CC2(C)CCC(C(C)CC(=O)CC(C)C)CC12 (stereo unspecified) inactive

Recorded test outcome, item COc1ccc2c(c1)OC(c1ccccc1O)CC2=O (stereo unspecified) inactive

Recorded test outcome, item "O=C(O)CN1CCN2CCOCCN(CC1)CCN(CC(=O)O)CC2" inactive

----------
# System: 786-0
# experiment: NCI tumour cell line growth inhibition, 48 h
Active and inactive are the calls of the source. Rule as the data show it: active = GI50 up to about 1.1 µM and inactive = higher.
measured_metric: GI50

# example entries with known answers
molecule: CCOC(=O)N1CCN(c2nc(C)n(-c3ccccc3)c(=S)c2C#N)CC1
GI50: 42.8 µM (inactive)
--
molecule: COc1cc([C@@H]2c3cc4c(cc3[C@@H](NC(=O)c3ccc(OC(C)=O)cc3)C3COC(=O)[C@@H]32)OCO4)cc(OC)c1O (stereo not given in full)
GI50: 1.22 µM (inactive)
--
molecule: CNC(Cc1ccccc1)c1cccc(OC)c1O (stereo not given)
GI50: > 100 µM (inactive)
--
molecule: O=C1/C(=C/C=C/c2ccccc2)CCC1CNc1ccccc1 (stereo not given)
GI50: 16.6 µM (inactive)
--
molecule: Cc1nc2cc3ccccc3cc2[nH]c1=O
GI50: 44.9 µM (inactive)

Please supply GI50 for each of the following items, keeping them in order.
1. CCOC(=O)/C(ON)=C(/CC/C(C(=O)OC)=C(\ON)C(=O)OCC)C(=O)OC
2. COC(=O)N[C@@H]1C[C@H]2CC[C@]1(O[Si](C(C)C)(C(C)C)C(C)C)C(=O)C2
3. Cn1/c(=N\c2ccc(Cl)cc2)sc2ccccc21
4. CN1CC2=C(N=C(S)NC2c2ccccc2Cl)/C(=C/c2ccccc2Cl)C1 (stereo not given)
5. C=C1C(=O)OC2C1CC(O)/C(C)=C\CCC1(C)OC21 (stereo not given)

> 100 µM (inactive)
17.9 µM (inactive)
37.7 µM (inactive)
> 100 µM (inactive)
31 µM (inactive)

Every entry's value here was drawn from ChEMBL document CHEMBL1201862.
